Attribution: the supplement of paper PMC9732359

Measured protein stability index accompanies every entry in the list below.
assay notes: protein stability index of a GFP-peptide fusion (yeast GPS) (PSI 1-4); higher = more stable; sorted into four equal gates, so the index is relative within each strain
experimental parameters: pdr5∆
Just the number, please.

# entry sequence, protein stability index
measured = [
    ("TRDETVSLIKKYKLISR [YML103C/NUP188]", 2.56),
    ("DPPNEGDPFDYKAQADT [RPB3]", 3.42),
    ("SEILSFDPVYTTVITVF [YML103C/NUP188]", 2.27),
    ("NAKESNYTDLIWFPEDF [MED1]", 3.47),
]

Lookup: Entry NSASSAPTPAAPGASVP [SWI1] has what protein stability index?
Found: 3.16

Lookup: Try the sequence LQEAIDFAQKEINGDDD [PRE10]
Found: 3

Lookup: Try the sequence KDEEETEYFENKQSVSN [DSN1]
Found: 3.4

Lookup: Try the sequence NVFHGLCAGANNPKIQT [IRR1]
Found: 1.97

Lookup: Try the sequence YVDFVPMYKELWINYIK [POP4]
Found: 2.42

Lookup: Try the sequence EMKNIRGPYLVIVPLST [SNF2]
Found: 1.51

Lookup: Try the sequence VYAQQSTVQTPITASMA [PGD1]
Found: 1.95

Lookup: Try the sequence AEKSFKPPKNKYKVVRR [SEC65]
Found: 3

Lookup: Try the sequence ITRSVMRFNIEIIADWI [BRR2]
Found: 2.7

Lookup: Try the sequence TEENIKGETNSEISIID [RRP45]
Found: 3.16

Lookup: Try the sequence MHLMALHIHGSSNPLGI [COB]
Found: 2.1
